# PBM binding z-score annotations
- Test system: PPARg:RXRa DBDmut IVT, anti-RXR (DBD mutation: RXRa K156A/R161A, NR concentration 270 nM, RXRa partner concentration 90 nM)
- Test: PBM binding z-score (relative to random genomic background probes); higher = stronger binding; sequences stand for … in GC…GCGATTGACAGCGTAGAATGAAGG
Assay endpoint: PBM binding z-score

# Chain, Assay endpoint, Value reported
measured = [
    ("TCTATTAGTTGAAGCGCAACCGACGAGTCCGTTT", "PBM binding z-score", 2.22),
    ("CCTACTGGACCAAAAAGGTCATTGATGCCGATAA", "PBM binding z-score", 1.82),
    ("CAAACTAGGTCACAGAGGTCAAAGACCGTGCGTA", "PBM binding z-score", 8.39),
    ("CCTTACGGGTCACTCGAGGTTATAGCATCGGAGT", "PBM binding z-score", 2.22),
    ("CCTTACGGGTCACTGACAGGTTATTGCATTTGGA", "PBM binding z-score", 3.48),
    ("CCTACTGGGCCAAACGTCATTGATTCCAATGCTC", "PBM binding z-score", 6.22),
    ("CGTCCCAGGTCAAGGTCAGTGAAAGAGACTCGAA", "PBM binding z-score", 2.24),
    ("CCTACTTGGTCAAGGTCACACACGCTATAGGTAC", "PBM binding z-score", 2.5),
    ("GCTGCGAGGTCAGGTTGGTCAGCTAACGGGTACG", "PBM binding z-score", 1.82),
]
